- ASSAY_SYSTEM: Estrogen receptor beta (Homo sapiens, UniProt Q92731)
- Sequence (Q92731 whole entry): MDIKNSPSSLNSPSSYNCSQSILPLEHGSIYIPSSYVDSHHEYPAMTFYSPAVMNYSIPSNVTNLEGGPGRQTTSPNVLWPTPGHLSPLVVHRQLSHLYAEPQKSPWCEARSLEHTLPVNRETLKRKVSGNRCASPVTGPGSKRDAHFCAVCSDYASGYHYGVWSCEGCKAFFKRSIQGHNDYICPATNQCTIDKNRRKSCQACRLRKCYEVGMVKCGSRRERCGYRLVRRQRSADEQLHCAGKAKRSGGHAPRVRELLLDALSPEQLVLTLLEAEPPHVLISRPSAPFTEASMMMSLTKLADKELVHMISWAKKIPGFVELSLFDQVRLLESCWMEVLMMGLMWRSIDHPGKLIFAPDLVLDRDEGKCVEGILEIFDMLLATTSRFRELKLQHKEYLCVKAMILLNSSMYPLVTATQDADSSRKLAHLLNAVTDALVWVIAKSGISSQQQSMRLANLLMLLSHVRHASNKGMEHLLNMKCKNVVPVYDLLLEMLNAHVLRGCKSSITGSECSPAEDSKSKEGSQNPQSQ
- METHOD: Potency in cellular transactivation assay utilizing HEK293 cells stably co-transfected with human estrogen receptor beta and the alkaline phosphatase reporter gene
- Type: functional, cell-based
ASSAY_READOUT: pIC50
Reminder that pIC50 means the negative base-10 logarithm of the concentration expressed in mol/L.

Completed entries (count: 3):
> print(dat)
                                   molecule  reported.value
1  Oc1ccc([C@@H]2Sc3cc(O)c(Cl)cc3O[C@@H]2c2ccc(OCCN3CCCCC3)cc2)cc1            5.63
2  Oc1cccc(C2Sc3cc(O)ccc3OC2c2ccc(OCCN3CCCCC3)cc2)c1 (stereo unspecified)            6.61
3  Oc1ccc([C@@H]2Sc3cc(Cl)c(O)cc3O[C@@H]2c2ccc(OCCN3CCCCC3)cc2)cc1            5.52

I'm curious: which pIC50 was measured for Cc1cc(O)cc2c1O[C@H](c1ccc(OCCN3CCCCC3)cc1)[C@H](c1ccc(O)cc1)S2 tested on Estrogen receptor beta (Homo sapiens, UniProt Q92731)?
6.16

I'm curious: which pIC50 was measured for Oc1ccc([C@@H]2Sc3cc(O)cc(Cl)c3O[C@@H]2c2ccc(OCCN3CCCCC3)cc2)cc1 tested on Estrogen receptor beta (Homo sapiens, UniProt Q92731)?
5.99

I'm curious: which pIC50 was measured for Cc1cc(O)cc2c1S[C@@H](c1ccc(O)cc1)[C@@H](c1ccc(OCCN3CCCCC3)cc1)O2 tested on Estrogen receptor beta (Homo sapiens, UniProt Q92731)?
6.70

----------
- ASSAY_SYSTEM: Estrogen receptor beta (Homo sapiens, UniProt Q92731)
pIC50: −log10 of the molar value.
Binary call on pIC50: YES from 7 upward, NO beneath that.

> print(dat)
                              sample.smiles  class.assignment
1  Oc1cccc([C@H]2Sc3cc(O)ccc3O[C@H]2c2ccc(OCCN3CCOCC3)cc2)c1                NO
2  Oc1cccc([C@H]2Sc3cc(O)ccc3O[C@H]2c2ccc(OCCN3CCCC3)cc2)c1               YES

// inclusive: pIC50 at least 7? input: Oc1ccc([C@@H]2Sc3c(ccc(O)c3F)O[C@@H]2c2ccc(OCCN3CCCCC3)cc2)cc1
YES

// inclusive: pIC50 at least 7? input: Oc1ccc([C@@H]2Sc3c(F)cc(O)cc3O[C@@H]2c2ccc(OCCN3CCCCC3)cc2)cc1
YES

----------
- ASSAY_SYSTEM: UniProt:Q92731
ASSAY_READOUT: IC50 (nM)
Your answer is read as nM, so omit the unit and give the number.

> print(dat)
                                   compound  reported.value
1  Oc1ccc([C@@H]2Sc3c(ccc(O)c3Cl)O[C@@H]2c2ccc(OCCN3CCCCC3)cc2)cc1              14
2  Oc1ccc([C@@H]2Sc3c(Cl)cc(O)cc3O[C@@H]2c2ccc(OCCN3CCCCC3)cc2)cc1               8
3  Oc1ccc2c(c1)SC(c1ccc(F)cc1)C(c1ccc(OCCN3CCCCC3)cc1)O2 (stereo not drawn)            66.6
4  CC1CCCC(C)N1CCOc1ccc([C@@H]2Oc3ccc(O)cc3S[C@@H]2c2cccc(O)c2)cc1 (stereo partly drawn)             350
5  CCc1cc(O)cc2c1S[C@@H](c1ccc(O)cc1)[C@@H](c1ccc(OCCN3CCCCC3)cc1)O2             185
6  Oc1ccc([C@H]2Sc3c(ccc(O)c3F)O[C@H]2c2ccc(OCCN3CCCCC3)cc2)cc1              18
7  CCc1c(O)ccc2c1O[C@H](c1ccc(OCCN3CCCCC3)cc1)[C@H](c1ccc(O)cc1)S2              25
8  Cc1cc(O)cc2c1S[C@@H](c1ccc(O)cc1)[C@@H](c1ccc(OCCN3CCCCC3)cc1)O2            46.2

Return reported IC50; argument: Oc1cccc(C2Sc3cc(O)ccc3OC2c2ccc(OCCN3CCCCC3)cc2)c1 (stereo not drawn)
250

Return reported IC50; argument: Oc1ccc2c(c1)S[C@@H](c1ccccc1O)[C@@H](c1ccc(OCCN3CCCCC3)cc1)O2
1.1

Return reported IC50; argument: Oc1ccc([C@@H]2Sc3c(O)cc(O)cc3O[C@@H]2c2ccc(OCCN3CCCCC3)cc2)cc1
788

Cited source: ChEMBL document CHEMBL1146754
